assay: Half life in Sprague-Dawley rat at 10 mg/kg, po via gavage measured for 0.25 to 96 hrs by LC/MS analysis; type: ADME, organism-based; conditions: in vivo, time 0.25-96 hrs
measurement.kind: half-life (h)
Your answer should be a plain number; it is taken to be in h.

Consider the compound shown here: `COc1ccn2nc(C)c(C(=O)NCc3ccc(N4CCC(c5ccc(OC(F)(F)F)cc5)CC4)cc3)c2c1` What is its recorded half-life?
19

====

assay: Half life in Sprague-Dawley rat at 5 mg/kg, po measured for 0.083 to 24 hrs by LC-MS/MS analysis; type: ADME, organism-based; details: in vivo, time 0.083-24 hrs
measurement.kind: half-life (min)
Your answer should be a plain number; it is taken to be in min.

Consider the compound shown here: `COc1ccc(OCc2nn3c(-c4ccc(Br)cc4)nnc3s2)cc1` What is its recorded half-life?
66

====

assay: Stability in mouse liver microsome assessed as half life by Reverse-phase HPLC analysis; assay type: ADME; settings: liver microsomes
measurement.kind: half-life (min)
Your answer should be a plain number; it is taken to be in min.

> print(dat)
                         input.smiles  measurement.kind  unit.string  numeric.result
1  Cc1n[nH]c2ccc(NS(=O)(=O)CCCCF)cc12         half-life          min              28

Then there is this molecule:
Consider the molecule shown here: `CCCCS(=O)(=O)Nc1ccc2cnn(C)c2c1` What is its recorded half-life?
10

====

test: Half life in mouse; type: ADME, organism-based; conditions: in vivo
Binary call on half-life with cut-off 60 min: strictly below means Fulfilled, and equality or higher means Not fulfilled.

For orientation, consider the following solved cases.
> print(dat)
                                   molecule  classification
1  C[C@@H](O)[C@H]1C(=O)N2C(C(=O)O)=C(S[C@@H]3CN[C@H](C(=O)N(C)C)C3)[C@H](C)[C@H]12       Fulfilled
2  Cc1csc([C@](C)(O)c2nnc(Nc3ccn(Cc4csc(C)n4)n3)s2)n1       Fulfilled
3             CCNC(=N)NC(=O)Nc1c(CC)cccc1CC   Not fulfilled

Is half-life of C[C@@H](O)[C@H]1C(=O)N2C(C(=O)[O-])=C(SC3Cn4cnc[n+]4C3)[C@H](C)[C@H]12 (stereo not given in full) strictly below 60 min?
Fulfilled

Is half-life of `O=C(CCC(F)(F)F)N1CCC2(CC1)CC(c1ccccc1)=NO2` strictly below 60 min?
Fulfilled

====

tested on: Mycobacterium tuberculosis; assay: microbe, parasite or virus in culture; conditions: H37Rv
Description: Antibacterial activity against Mycobacterium tuberculosis H37Rv assessed as inhibition of bacterial growth
measurement.kind: MIC (µM)
Your answer should be a plain number; it is taken to be in µM.

Worked examples, 5 molecules total:
> print(dat)
                                   molecule  numeric.result
1                           N[C@@H]1CONC1=O             157
2  O=S1(=O)C[C@H](O)[C@@H](N2CCN(c3ccccc3Cl)CC2)C1            0.76
3  CO[C@H]1CCC[C@H]2C1=C(C(=O)[O-])N1C(=O)[C@H]([C@@H](C)O)[C@@H]21.[Na+] [SANFETRINEM SODIUM]               5
4      Fc1ccc(-c2nnc3sc(COc4ccccc4)nn23)cc1              25
5  N=C(N)NC(=O)c1nc(-c2cc3ccccc3o2)c(N)nc1N               4

Hello, I am looking for reported MIC with Mycobacterium tuberculosis for `CC(=O)NC[C@H]1CN(c2ccc(N3CCOCC3)c(F)c2)C(=O)O1` . Could you help?
1.5

Hello, I am looking for reported MIC with Mycobacterium tuberculosis for `O=S1(=O)C[C@H](O)[C@@H](N2CCN(c3ccc(F)cc3Cl)CC2)C1` . Could you help?
2.3

Hello, I am looking for reported MIC with Mycobacterium tuberculosis for `CCCCS(=O)(=O)Nc1ccc2cnn(C)c2c1` . Could you help?
0.8
